# tested-on: Neutrophil elastase (Homo sapiens) (UniProt P08246)
# assay-notes: Koff was the deacylation association equilibrium rate constant of a competitive inhibition human leukocyte elastase(HLE).
value-type: k off (s⁻¹)
Value expressed in s⁻¹; do not type the unit.

In [3]: df
Out[3]:
                         mol  measurement
0  CCN(CC)c1nc2ccccc2c(=O)o1      0.00079

# query: k off of entry `CCN(CC)c1nc2sc3ccccc3c2c(=O)o1`
5.5e-05

# query: k off of entry `CCN(CC)c1nc2sc3c(c2c(=O)o1)CCC3`
4.5e-05

# query: k off of entry `CCN(CC)c1nc2scc(C(C)C)c2c(=O)o1`
0.00013

* * *

# tested-on: Neutrophil elastase (Homo sapiens, UniProt P08246)
# assay-notes: Inhibitory activity against human leukocyte elastase
pKi: −log10 of the molar value.
Decision: pKi >= 7 yields true (1), all other cases yield false (0).

Examples with answers:
>>> print(df.to_string())
                            molecule                                 tested_on      group
0     CCN(CC)c1nc2sc3ccccc3c2c(=O)o1  Neutrophil elastase (Homo sapiens, UniProt P08246)   true (1)
1           CCN(CC)c1nc2sccc2c(=O)o1  Neutrophil elastase (Homo sapiens, UniProt P08246)  false (0)
2    CCN(CC)c1nc2scc(C(C)C)c2c(=O)o1  Neutrophil elastase (Homo sapiens, UniProt P08246)   true (1)
3  CCN(CC)c1nc2sc3c(c2c(=O)o1)CCCCC3  Neutrophil elastase (Homo sapiens, UniProt P08246)   true (1)
4   CCN(CC)c1nc2sc3c(c2c(=O)o1)CCCC3  Neutrophil elastase (Homo sapiens, UniProt P08246)   true (1)

Read the next record carefully.
For this molecule, is measured pKi 7 or higher? CCN(CC)c1nc2sc3c(c2c(=O)o1)C(C)CCC3 (configuration not stated)
false (0)

* * *

# tested-on: Neutrophil elastase (Homo sapiens, UniProt P08246)
# Sequence (P08246 whole entry): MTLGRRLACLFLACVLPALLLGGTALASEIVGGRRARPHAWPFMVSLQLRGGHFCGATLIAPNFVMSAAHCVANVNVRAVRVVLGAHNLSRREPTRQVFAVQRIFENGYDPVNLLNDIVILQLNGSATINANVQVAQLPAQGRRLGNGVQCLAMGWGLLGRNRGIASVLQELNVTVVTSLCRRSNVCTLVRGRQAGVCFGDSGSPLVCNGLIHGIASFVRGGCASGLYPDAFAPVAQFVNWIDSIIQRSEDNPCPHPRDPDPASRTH
# assay-notes: Inhibitory activity against human leukocyte elastase
value-type: pKi
API: returns pKi as number; meaning -log10 of concentration in mol/L.

>>> print(df.to_string())
                               mol  value_type  measurement
0      CCN(CC)c1nc2scc(C)c2c(=O)o1         pKi         6.35
1  CCN(CC)c1nc2sc3c(c2c(=O)o1)CCC3         pKi         7.89
2        CCN(CC)c1nc2ccccc2c(=O)o1         pKi         6.51

Consider the record given below.
# query: pKi of entry `CCN(CC)c1nc2ccsc2c(=O)o1`
6.89

* * *

# assay-notes: The alkaline hydrolysis second order rate constant(K OH) taken as log K.
Decision: Log K >= -0.9 yields y, all other cases yield n.

Examples with answers:
                                   mol  group
0       CCN(CC)c1nc2sc3ccccc3c2c(=O)o1      n
1    CCN(CC)c1nc2sc3c(c2c(=O)o1)CCCCC3      n
2  CCN(CC)c1nc2sc(C(N)=O)c(C)c2c(=O)o1      y
3          CCN(CC)c1nc2scc(C)c2c(=O)o1      n
4      CCN(CC)c1nc2sc3c(c2c(=O)o1)CCC3      n

Read the next record carefully.
For this molecule, is measured Log K -0.9 or higher? `CCN(CC)c1nc2ccccc2c(=O)o1`
y

* * *

# assay-notes: The alkaline hydrolysis second order rate constant(K OH) of the compound
# Assay type: ADME
value-type: K (M⁻¹ s⁻¹)
Value expressed in M⁻¹ s⁻¹; do not type the unit.

In the examples that follow, each entry is paired with its recorded K.
>>> df
                                   molecule  measurement
0           CCN(CC)c1nc2sc3c(c2c(=O)o1)CCC3        0.094
1           CCN(CC)c1nc2scc(C(C)C)c2c(=O)o1        0.054
2            CCN(CC)c1nc2sc3ccccc3c2c(=O)o1        0.075
3                  CCN(CC)c1nc2ccsc2c(=O)o1         0.11
4                  CCN(CC)c1nc2sccc2c(=O)o1         0.12
5               CCN(CC)c1nc2scc(C)c2c(=O)o1        0.073
6         CCN(CC)c1nc2sc3c(c2c(=O)o1)CCCCC3        0.038
7                 CCN(CC)c1nc2ccccc2c(=O)o1          5.9
8  CCN(CC)c1nc2sc3c(c2c(=O)o1)C(C)CCC3 (stereo unspecified)        0.039
9       CCN(CC)c1nc2sc(C(N)=O)c(C)c2c(=O)o1          0.4

# query: K of entry `CCN(CC)c1nc2sc3c(c2c(=O)o1)CCCC3`
0.032

* * *

# assay-notes: The alkaline hydrolysis second order rate constant(K OH) taken as log K.
value-type: Log K

>>> df
                                   molecule  measurement
0           CCN(CC)c1nc2scc(C(C)C)c2c(=O)o1        -1.27
1                  CCN(CC)c1nc2ccsc2c(=O)o1        -0.95
2  CCN(CC)c1nc2sc3c(c2c(=O)o1)C(C)CCC3 (centres undefined)        -1.41

# query: Log K of entry `CCN(CC)c1nc2sc3c(c2c(=O)o1)CCCC3`
-1.49

* * *

Each entry below lists one item and its recorded k on value.
# tested-on: Neutrophil elastase (Homo sapiens) (UniProt P08246)
# Sequence (whole entry): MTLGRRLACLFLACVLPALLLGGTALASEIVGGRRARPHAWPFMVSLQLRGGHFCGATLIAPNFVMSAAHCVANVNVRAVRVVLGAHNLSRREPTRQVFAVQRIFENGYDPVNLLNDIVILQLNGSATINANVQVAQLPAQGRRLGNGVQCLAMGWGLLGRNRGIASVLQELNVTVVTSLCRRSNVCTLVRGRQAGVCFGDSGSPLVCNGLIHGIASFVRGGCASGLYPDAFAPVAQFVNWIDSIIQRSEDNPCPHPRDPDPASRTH
# assay-notes: Kon was the acylation association equilibrium rate constant of a competitive inhibition of human leukocyte elastase(HLE).
Value expressed in M⁻¹ s⁻¹; do not type the unit.

In the examples that follow, each entry is paired with its recorded k on.
>>> df
                                   compound  measurement
0         CCN(CC)c1nc2sc3c(c2c(=O)o1)CCCCC3          990
1                  CCN(CC)c1nc2ccsc2c(=O)o1          330
2           CCN(CC)c1nc2sc3c(c2c(=O)o1)CCC3         3600
3                 CCN(CC)c1nc2ccccc2c(=O)o1         2600
4            CCN(CC)c1nc2sc3ccccc3c2c(=O)o1         9500
5  CCN(CC)c1nc2sc3c(c2c(=O)o1)C(C)CCC3 (stereo unspecified)           63

# query: k on of entry `CCN(CC)c1nc2scc(C)c2c(=O)o1`
140

# query: k on of entry `CCN(CC)c1nc2sccc2c(=O)o1`
530

# query: k on of entry `CCN(CC)c1nc2scc(C(C)C)c2c(=O)o1`
10000

# query: k on of entry `CCN(CC)c1nc2sc(C(N)=O)c(C)c2c(=O)o1`
4000

# query: k on of entry `CCN(CC)c1nc2sc3c(c2c(=O)o1)CCCC3`
2500

* * *

Each entry below lists one item and its recorded k off value.
# tested-on: Neutrophil elastase (Homo sapiens) (UniProt P08246)
# assay-notes: Koff was the deacylation association equilibrium rate constant of a competitive inhibition human leukocyte elastase(HLE).
Value expressed in s⁻¹; do not type the unit.

In [3]: df
Out[3]:
                              molecule                                 tested_on  measurement
0  CCN(CC)c1nc2sc(C(N)=O)c(C)c2c(=O)o1  Neutrophil elastase (Homo sapiens) (UniProt P08246)      0.00036
1             CCN(CC)c1nc2ccsc2c(=O)o1  Neutrophil elastase (Homo sapiens) (UniProt P08246)      4.3e-05

# query: k off of entry `CCN(CC)c1nc2sccc2c(=O)o1`
0.00014

# query: k off of entry CCN(CC)c1nc2sc3c(c2c(=O)o1)C(C)CCC3 (configuration not stated)
1.3e-05

# query: k off of entry `CCN(CC)c1nc2scc(C)c2c(=O)o1`
6.4e-05

# query: k off of entry `CCN(CC)c1nc2sc3c(c2c(=O)o1)CCCC3`
3.2e-05

# query: k off of entry `CCN(CC)c1nc2sc3c(c2c(=O)o1)CCCCC3`
4.3e-05

Data provenance: ChEMBL document CHEMBL1132695
